src = PubChem BioAssay AID1053180

experimentSummary: activators of Pax4 gene expression, primary screen, RT-PCR, mouse alpha TC1 cells, single point (AID 1053180);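 also: Pax4 Ct normalized to GAPDH with activation seen as lower delta delta Ct; plate controls were plate neutral control wells for no effect and Pax4 plasmid positive control for full effect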
conditionParameters: Pax4 mRNA qPCR, 6 days, at 10 µM, stronger effect = higher value, 100% = Pax4 plasmid added at qPCR
The whole screen tested about 9,600 compounds, of which about 20 (0.2%) were called active. What follows is part of a selection rich in actives, with near analogues and random picks from the rest.
Measured activation values are reported for all entries that follow.
Answer with a number only, understood to be in %.

Completed entries (count: 4):
entrySmiles	endpointLabel	observed
O=C(CN1CCOCC1)N[C@@H]1CC[C@@H](CCn2cc(C3CC3)nn2)O[C@@H]1CO	activation	0.0035
O=C(C[C@@H]1CC[C@H]2[C@@H](COC[C@@H](O)CN2C(=O)Cc2ccccc2)O1)NC1Cc2ccccc2C1	activation	0.021
N#C[C@@H]1[C@H](c2ccccc2C2=CCCCC2)[C@H](CO)N1C(=O)CN1CCOCC1	activation	0
COCCN(C[C@H]1N[C@H](CO)[C@@H]1c1ccccc1)C(=O)NC1CCCC1	activation	0.002

Request: Item under review: N#C[C@@H]1[C@@H](c2ccccc2-c2ccccc2F)[C@@H](CO)N1C(=O)Cc1ccccc1 . Reported activation?
Result: 0.0105

Request: Here is the next molecule: CN1CCN(C(=O)C[C@H]2C[C@H]3c4cc(NS(C)(=O)=O)ccc4O[C@H]3[C@H](CO)O2)CC1
Result: 0

Request: Here is the next molecule: CS(=O)(=O)Nc1ccc2c(c1)[C@@H]1C[C@@H](CC(=O)NCc3cc(F)ccc3F)O[C@H](CO)[C@@H]1O2
Result: 0.007

Request: Here is the next molecule: COc1ccc(S(=O)(=O)N(C)C[C@@H]2Oc3c(NC(=O)c4nc5ccccc5s4)cccc3C(=O)N([C@@H](C)CO)C[C@@H]2C)cc1
Result: -0.002

----------
experimentSummary: activators of Pax4 gene expression, primary screen, RT-PCR, mouse alpha TC1 cells, single point (AID 1053180)
conditionParameters: Pax4 mRNA qPCR, 6 days, at 10 µM, stronger effect = higher value, 100% = Pax4 plasmid added at qPCR
Among all 9,600 compounds or so, about 20 (0.2%) were called active. Only a selection was taken, and actives are over-represented in it overall.
endpointLabel: activation (%)
Answer with a number only, understood to be in %.

Completed entries (count: 5):
compound	measureUnit	observed
CCC(=O)N1[C@H](CO)[C@@H]2c3ccccc3N(C(=O)Nc3ccc(Cl)cc3)C[C@@H]21	%	-0.0015
O=C(NC[C@@H]1[C@@H](c2ccccc2)[C@@H](CO)N1Cc1ccccn1)C1CCCC1	%	-0.003
Cc1ccccc1S(=O)(=O)N1C[C@@H]2N[C@H](C1)C2c1ccc(/C=C/c2ccccc2)cc1 (stereo partly drawn)	%	0.183
COc1ccc2c3c(n(C)c2c1)[C@H](CO)N(S(=O)(=O)c1ccc(C)cc1)CC31CCN(C)CC1	%	0.052
COc1ccc2c3c(n(C)c2c1)[C@@H](CO)N(CC1CC1)CC31CN(C(=O)c2ccc3c(c2)OCO3)C1	%	8.42

Request: Item under review: CCS(=O)(=O)N1Cc2cc(C(=O)NCCOC)nc(-c3cccc(-c4ccncc4)c3)c2[C@H]1CCO . Reported activation?
Result: 0

Request: Here is the next compound: Cc1nn(C)cc1NC(=O)C[C@@H]1CC[C@@H]2[C@H](COc3ccc(NC(=O)c4cccc(F)c4)cc3C(=O)N2C)O1
Result: 0.0015

Request: Here is the next compound: C[C@@H]1CNC(=O)[C@H](Cc2ccc(C(F)(F)F)cc2)CCn2nncc2COC1
Result: 0.259

----------
experimentSummary: activators of Pax4 gene expression, primary screen, RT-PCR, mouse alpha TC1 cells, single point (AID 1053180);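 also: Pax4 Ct normalized to GAPDH with activation seen as lower delta delta Ct; plate controls were plate neutral control wells for no effect and Pax4 plasmid positive control for full effect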
conditionParameters: Pax4 mRNA qPCR, 6 days, at 10 µM, stronger effect = higher value, 100% = Pax4 plasmid added at qPCR
The campaign covered roughly 9,600 compounds. About 20 (0.2%) were called active. The entries come from a sample that favours actives as a whole.
Given measured activation, output TRUE if it is greater than or equal to 0.003% and FALSE if not.

entrySmiles	class
CO[C@@H]1CN(C)C(=O)c2ccc(NC(=O)c3ccccc3F)cc2OC[C@H](C)N(C)C[C@H]1C	FALSE
O=C(C[C@H]1CC[C@H]2[C@@H](COC[C@H](O)CN2Cc2ccc3c(c2)OCO3)O1)N1CCCCC1	TRUE
N#C[C@@H]1[C@@H](c2ccccc2-c2cccc(F)c2)[C@H](CO)N1C(=O)C1CC1	TRUE
CO[C@H](CN(C)Cc1cc(F)ccc1F)[C@@H](C)CN(C(=O)Nc1ccc(C(F)(F)F)cc1)[C@H](C)CO	TRUE
COc1cccc(-c2ccc3c(c2)O[C@H](CN(C)Cc2cccnc2)[C@H](C)CN([C@@H](C)CO)S3(=O)=O)c1	TRUE
Cc1nn(C)cc1NC(=O)C[C@@H]1CC[C@@H]2[C@@H](COc3ccc(NC(=O)c4cccc(F)c4)cc3C(=O)N2C)O1	FALSE
CN1C(=O)c2cc(NC(=O)C3CCOCC3)ccc2OC[C@@H]2O[C@H](CC(=O)NCCc3ccncc3)CC[C@H]21	FALSE

Now for another entry.
Request: Please indicate if the recorded activation for CN1c2ccc(-c3ccc(C#N)cc3)cc2[C@H]2[C@H](CCN2S(=O)(=O)c2ccc(F)cc2)[C@@H]1CO meets or exceeds 0.003%.
Result: TRUE

----------
experimentSummary: activators of Pax4 gene expression, primary screen, RT-PCR, mouse alpha TC1 cells, single point (AID 1053180);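 also: Pax4 Ct normalized to GAPDH with activation seen as lower delta delta Ct; plate controls were plate neutral control wells for no effect and Pax4 plasmid positive control for full effect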
conditionParameters: Pax4 mRNA qPCR, 6 days, at 10 µM, stronger effect = higher value, 100% = Pax4 plasmid added at qPCR
Out of some 9,600 compounds screened, about 20 (0.2%) were called active. This excerpt belongs to a sample that is enriched for actives.
endpointLabel: activation (%)
Answer with a number only, understood to be in %.

Completed entries (count: 8):
entrySmiles	activation [%]
COc1ccc(S(=O)(=O)Nc2ccc3c(c2)CC(=O)N([C@H](C)CO)C[C@H](C)[C@H](CN(C)Cc2ccc(C(=O)Nc4ccccc4N)cc2)O3)cc1	15.1
C[C@@H]1CN([C@H](C)CO)C(=O)Cc2cc(NC(=O)C3CCCCC3)ccc2O[C@H]1CN(C)Cc1ccc(Cl)c(Cl)c1	0.389
O=C(C[C@@H]1C[C@@H]2c3cc(NC(=O)c4ccc5c(c4)OCO5)ccc3O[C@@H]2[C@H](CO)O1)NCCN1CCCCC1	-0.001
O=C1CN(S(=O)(=O)c2cccc(F)c2)C[C@@H]2[C@@H](c3ccc(C4=CCCC4)cc3)[C@H](CO)N12	0.006
C[C@@H]1CCCCO[C@@H](CN(C)S(=O)(=O)c2ccc(F)cc2)[C@H](C)CN([C@@H](C)CO)C(=O)c2cc(N(C)C)ccc2O1	0.002
C/C=C/c1ccc([C@@H]2[C@H](CO)N(C(C)=O)[C@H]2CNC(=O)c2ccccc2)cc1	0.0015
O=C(C[C@@H]1C[C@H]2c3cc(NC(=O)NC4CCCC4)ccc3O[C@H]2[C@H](CO)O1)NCc1ccccc1F	0.02
C[C@H]1CN([C@@H](C)CO)C(=O)Cc2cc(NC(=O)C3CCCCC3)ccc2O[C@H]1CN(C)Cc1ccc(Cl)c(Cl)c1	0.106

Request: Item under review: O=C(CC1CC1)N1CC[C@@H]2[C@H]1c1cc(-c3ccc(F)cc3)ccc1N[C@@H]2CO . Reported activation?
Result: 0.0045

Request: Here is the next molecule: C[C@@H]1CN([C@@H](C)CO)C(=O)Cc2cc(NC(=O)C3CCCCC3)ccc2O[C@@H]1CN(C)Cc1ccc(Cl)c(Cl)c1
Result: 46.5

Request: Here is the next molecule: COc1ccc(S(=O)(=O)Nc2ccc3c(c2)CC(=O)N([C@H](C)CO)C[C@@H](C)[C@H](CN(C)Cc2ccc(C(=O)Nc4ccccc4N)cc2)O3)cc1
Result: 0.03

Request: Here is the next molecule: O=C(Nc1ccc2c(c1)[C@@H]1C[C@@H](CC(=O)N3CCCCC3)O[C@H](CO)[C@@H]1O2)NC1CCCCC1
Result: 0.012

Request: Here is the next molecule: COc1ccc(S(=O)(=O)Nc2ccc3c(c2)CC(=O)N([C@H](C)CO)C[C@@H](C)[C@@H](CN(C)Cc2ccc(C(=O)Nc4ccccc4N)cc2)O3)cc1
Result: 0.03

Request: Here is the next molecule: C[C@@H]1CCCCO[C@H](CN(C)C(=O)Nc2ccc3c(c2)OCO3)[C@H](C)CN([C@H](C)CO)C(=O)c2cc(NS(=O)(=O)c3ccc(F)cc3)ccc2O1
Result: 0.0035

----------
Measured activation values are reported for all entries that follow.
experimentSummary: activators of Pax4 gene expression, primary screen, RT-PCR, mouse alpha TC1 cells, single point (AID 1053180);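 also: Pax4 Ct normalized to GAPDH with activation seen as lower delta delta Ct; plate controls were plate neutral control wells for no effect and Pax4 plasmid positive control for full effect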
conditionParameters: Pax4 mRNA qPCR, 6 days, at 10 µM, stronger effect = higher value, 100% = Pax4 plasmid added at qPCR
Hit rate of the full screen: of about 9,600 compounds, about 20 (0.2%) were called active. This excerpt belongs to a sample that is enriched for actives.

Completed entries (count: 8):
compound	activation
CCS(=O)(=O)Nc1ccc2c(c1)C(=O)N(C)[C@@H]1CC[C@H](CC(=O)NC3CCCCC3)O[C@@H]1CO2	0% (inactive)
CO[C@@H](CN(C)C(=O)c1ccc2c(c1)OCO2)[C@@H](C)CN([C@H](C)CO)S(=O)(=O)c1ccc(Cl)cc1	0.019% (inactive)
COc1cccc(-c2cccc(-c3nc(C(=O)O)cc4c3[C@@H](CCO)N(S(=O)C(C)(C)C)C4)c2)c1 (some centres not stated)	0% (inactive)
C[C@H]1CN([C@@H](C)CO)C(=O)c2ccccc2-c2ccccc2CO[C@H]1CN(C)Cc1ccc2c(c1)OCCN2C	0.073% (inactive)
COc1cccc(-c2cccc(-c3nc(C(=O)O)cc4c3[C@H](CCO)N(S(=O)C(C)(C)C)C4)c2)c1 (some centres not stated)	0.001% (inactive)
CCS(=O)(=O)Nc1ccc2c(c1)C(=O)N(C)[C@H]1CC[C@H](CC(=O)NCCCN3CCOCC3)O[C@H]1CO2	0% (inactive)
COc1ccc2c3c([nH]c2c1)[C@H](CO)N(S(=O)(=O)c1cn(C)cn1)CC31CCN(CC2CCCCC2)CC1	0.0045% (inactive)
N#C[C@@H]1N[C@@H](CO)[C@@H]1c1ccc(C#CC2CCCCC2)cc1	0.001% (inactive)

Next, consider the following compound.
Request: Item under review: O=C(NC1CCCC1)N[C@H]1C=C[C@H](CC(=O)N2CCOCC2)O[C@H]1CO . Reported activation?
Result: 0.0045% (inactive)
